Biological target: T1, monkey CTLA-4, full length, on transfected HEK293 cells (monkey)
T1 construct: whole, on cells; also called cCTLA-4; HEK293-cCTLA-4
Assay: FACS, 293F-cCTLA-4 cells
Measured MFI at 0.000128 nM by item

binder	MFI at 0.000128 nM
31C12F3 (chimeric antibody purified from hybridoma supernatant) (antibody, V domains shown, also called mAb010) VH: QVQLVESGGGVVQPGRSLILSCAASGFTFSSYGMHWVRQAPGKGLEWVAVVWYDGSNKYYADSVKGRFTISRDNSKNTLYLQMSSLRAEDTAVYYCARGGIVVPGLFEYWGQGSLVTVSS VL: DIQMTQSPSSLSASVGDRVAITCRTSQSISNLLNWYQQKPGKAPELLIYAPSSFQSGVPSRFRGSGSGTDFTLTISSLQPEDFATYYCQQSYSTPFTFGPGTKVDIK	2.4
92C8B6 (chimeric antibody purified from hybridoma supernatant) (antibody, V domains shown, also called mAb42; mAb042) VH: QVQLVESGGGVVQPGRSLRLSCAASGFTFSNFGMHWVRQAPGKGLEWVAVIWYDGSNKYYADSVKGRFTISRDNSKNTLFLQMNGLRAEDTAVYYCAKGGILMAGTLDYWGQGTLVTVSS VL: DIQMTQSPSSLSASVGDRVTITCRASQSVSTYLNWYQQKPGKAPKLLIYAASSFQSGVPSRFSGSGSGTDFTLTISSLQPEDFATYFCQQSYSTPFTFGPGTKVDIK	2.3
40C4C6 (chimeric antibody purified from hybridoma supernatant) (antibody, V domains shown, also called mAb09; mAb009) VH: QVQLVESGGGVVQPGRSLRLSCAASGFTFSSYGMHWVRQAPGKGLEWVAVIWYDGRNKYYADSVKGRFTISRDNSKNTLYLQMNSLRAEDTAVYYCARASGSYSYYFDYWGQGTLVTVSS VL: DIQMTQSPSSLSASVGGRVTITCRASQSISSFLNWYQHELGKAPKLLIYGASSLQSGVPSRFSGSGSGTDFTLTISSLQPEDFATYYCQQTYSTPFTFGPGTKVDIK	2.4
97A8D1 (chimeric antibody purified from hybridoma supernatant) (antibody, V domains shown, also called mAb49; mAb049) VH: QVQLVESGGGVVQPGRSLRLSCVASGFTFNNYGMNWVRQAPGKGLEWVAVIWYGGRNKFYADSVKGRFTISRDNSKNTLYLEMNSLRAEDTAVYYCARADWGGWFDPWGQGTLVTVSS VL: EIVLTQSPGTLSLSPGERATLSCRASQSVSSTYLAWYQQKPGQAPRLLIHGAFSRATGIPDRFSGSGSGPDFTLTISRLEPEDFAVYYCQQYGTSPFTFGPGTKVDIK	2.4
